Assay details: total protein half-life in vivo (active degradation + dilution); higher = more stable protein
Assay context: wild type E. coli NCM3722; growth: N-lim chemostat; doubling time 12 h
// classify(record): look up total protein half-life in vivo in ranges lower bin: < 7 h; middle bin: ≥ 7 h and < 10 h; upper bin: ≥ 10 h

MQLNITGNNVEITEALREFVTAKFAKLEQYFDRINQVYVVLKVEKVTHTSDATLHVNGGEIHASAEGQDMYAAIDGLIDKLARQLTKHKDKLKQH [P0AFX0] ... middle bin
MSGLPLISRRRLLTAMALSPLLWQMNTAHAAAIDPNRIVALEWLPVELLLALGIVPYGVADTINYRLWVSEPPLPDSVIDVGLRTEPNLELLTEMKPSFMVWSAGYGPSPEMLARIAPGRGFNFSDGKQPLAMARKSLTEMADLLNLQSAAETHLAQYEDFIRSMKPRFVKRGARPLLLTTLIDPRHMLVFGPNSLFQEILDEYGIPNAWQGETNFWGSTAVSIDRLAAYKDVDVLCFDHDNSKDMDALMATPLWQAMPFVRAGRFQRVPAVWFYGATLSAMHFVRVLDNAIGGKA ... upper bin
MTVETQLNPTQPVNQQIYRILRRDIVHCLIAPGTPLSEKEVSVRFNVSRQPVREAFIKLAENGLIQIRPQRGSYVNKISMAQVRNGSFIRQAIECAVARRAASMITESQCYQLEQNLHQQRIAIERKQLDDFFELDDNFHQLLTQIADCQLAWDTIENLKATVDRVRYMSFDHVSPPEMLLRQHLDIFSALQKRDGDAVERAMTQHLQEISESVRQIRQENSDWFSEE [P0ACM2] ... upper bin
MDLQHWQAQFENWLKNHHQHQDAAHDVCHFRRVWATAQKLAADDDVDMLVILTACYFHDIVSLAKNHPQRQRSSILAAEETRRLLREEFEQFPAEKIEAVCHAIAAHSFSAQIAPLTTEAKIVQDADRLEALGAIGLARVFAVSGALGVALFDGEDPFAQHRPLDDKRYALDHFQTKLLKLPQTMQTARGKQLAQHNAHFLVEFMAKLSAELAGENEGVDHKVIDAFSSAG ... lower bin
MNYSLKQLKVFVTVAQEKSFSRAGERIGLSQSAVSHSVKELENHTGVRLLDRTTREVVLTDAGQQLALRLERLLDELNSTLRDTGRMGQQLSGKVRVAASQTISAHLIPQCIAESHRRYPDIQFVLHDRPQQWVMESIRQGDVDFGIVIDPGPVGDLQCEAILSEPFFLLCHRDSALAVEDYVPWQALQGAKLVLQDYASGSRPLIDAALARNGIQANIVQEIGHPATLFPMVAAGIGISILPALALPLPEGSPLVVKRITPVVERQLMLVRRKNRSLSTAAEALWDVVRDQGNALMAGREGDPLYQI [P0ACR7] ... middle bin
MNKTITALAIMMASFAANASVLPETPVPFKSGTGAIDNDTVYIGLGSAGTAWYKLDTQAKDKKWTALAAFPGGPRDQATSAFIDGNLYVFGGIGKNSEGLTQVFNDVHKYNPKTNSWVKLMSHAPMGMAGHVTFVHNGKAYVTGGVNQNIFNGYFEDLNEAGKDSTAIDKINAHYFDKKAEDYFFNKFLLSFDPSTQQWSYAGESPWYGTAGAAVVNKGDKTWLINGEAKPGLRTDAVFELDFTGNNLKWNKLAPVSSPDGVAGGFAGISNDSLIFAGGAGFKGSRENYQNGKNYAHEGLKKSYSTDIHLWHNGKWDKSGELSQGRAYGVSLPWNNSLLIIGGETAGGKAVTDSVLITVKDNKVTVQN ... upper bin
MINYGVVGVGYFGAELARFMNMHDNAKITCVYDPENGENIARELQCINMSSLDALVSSKLVDCVIVATPNYLHKEPVIKAAKNKKHVFCEKPIALSYEDCVDMVKACKEAGVTFMAGHIMNFFNGVQYARKLIKEGVIGEILSCHTKRNGWENKQERLSWKKMKEQSGGHLYHHIHELDCVQHLLGEIPETVTMIGGNLAHSGPGFGNEDDMLFMTLEFPSGKLATLEWGSAFNWPEHYVIINGTKGSIKIDMQETAGSLRIGGQTKHFLVHETQEEDDDRRKGNMTSEMDGAIAYGHPGKKTPLWLASLIRKETLFLHNILCGAKPEEDYIDLLNGEAAMSAIATADAATLSRSQDRKVKISEIIKHTSVM ... middle bin
MSFFISDAVAATGAPAQGSPMSLILMLVVFGLIFYFMILRPQQKRTKEHKKLMDSIAKGDEVLTNGGLVGRVTKVAENGYIAIALNDTTEVVIKRDFVAAVLPKGTMKAL [P0ADZ7] ... upper bin
MHQVVCATTNPAKIQAILQAFHEIFGEGSCHIASVAVESGVPEQPFGSEETRAGARNRVANARRLLPEADFWVAIEAGIDGDSTFSWVVIENASQRGEARSATLPLPAVILEKVREGEALGPVMSRYTGIDEIGRKEGAIGVFTAGKLTRASVYHQAVILALSPFHNAVY ... lower bin
MSVRLVLAKGREKSLLRRHPWVFSGAVARMEGKASLGETIDIVDHQGKWLARGAYSPASQIRARVWTFDPSESIDIAFFSRRLQQAQKWRDWLAQKDGLDSYRLIAGESDGLPGITIDRFGNFLVLQLLSAGAEYQRAALISALQTLYPECSIYDRSDVAVRKKEGMELTQGPVTGELPPALLPIEEHGMKLLVDIQHGHKTGYYLDQRDSRLATRRYVENKRVLNCFSYTGGFAVSALMGGCSQVVSVDTSQEALDIARQNVELNKLDLSKAEFVRDDVFKLLRTYRDRGEKFDVIVMDPPKFVENKSQLMGACRGYKDINMLAIQLLNEGGILLTFSCSGLMTSDLFQKIIADAAIDAGRDVQFIEQFRQAADHPVIATYPEGLYLKGFACRVM ... upper bin
